- System: oryza sativa L. (rice)
- assay: activity on agrarian species, soil treatment one day after sowing
- Format: in vivo
- measurementParameters: in vivo
readoutKind: activity on P, 0-4 scale

# compound, activity on P, 0-4 scale
measured = [
    ("CCC(C)N(C(=O)c1ccc(C)c(Cl)c1)C(C)CC (centres unmarked)", 0),
]

(A) CCC(C)N(C(=O)c1cc(Cl)c(Cl)cc1Cl)C(C)CC (centres unmarked)
(B) CCN(CC)C(=O)c1ccc(Cl)c(Cl)c1 [PA61, 3,4-dichloro-N,N-diethyl-benzamide, reference compound]
*Q* Looking only at measured activity on P, 0-4 scale, which entry is lower, A or B ? Refer to your chosen entry by its label in the reply.
*A* A
(A: 0, B: 3)
